- Test Target: human PDHK2 (hPDHK2) (Homo sapiens (Human), UniProt Q15119)
- Protocol Notes: Inhibitory action of PDHK activity in vitro (kinase reaction, residual PDH activity measured)
- Format: biochemical
- Test Parameters: PDHK inhibitory activity, class symbol of IC50
pIC50: −log10 of the molar value.
Quantity Measured: pIC50

In the examples that follow, each entry is paired with its recorded pIC50.
*Q* Given O=C(O)c1cccc2c1-c1ccccc1C2(O)C(F)(F)F (centres unmarked) [compound 32] , state its recorded pIC50.
*A* < 6.00

*Q* Entry COc1cnc2c(c1)C(O)(C(F)(F)F)c1ccccc1-2 (centres unmarked) [compound 378] please
*A* 6.00 to 7.00

*Q* Entry NC(=O)c1cc(OCCN2CCCC2=O)cc2c1-c1ccccc1C2(O)C(F)(F)F (centres unmarked) [compound 502] please
*A* > 7.00

*Q* Entry O=C(O)CCCOc1cc(-c2cccnc2)c2c(c1)C(O)(C(F)(F)F)c1ccccc1-2 (single isomer, unassigned) [compound 561] please
*A* > 7.00

*Q* Entry O=C(NCCCCO)c1cc(-c2cncnc2)c2c(c1)C(O)(C(F)(F)F)c1ccccc1-2 (centres unmarked) [compound 371] please
*A* 6.00 to 7.00

Further cases:
*Q* Given O=C(NCCCO)c1ccc2c(c1)C(O)(C(F)(F)F)c1ccccc1-2 (centres unmarked) [compound 311] , state its recorded pIC50.
*A* < 6.00

*Q* Entry O=C(c1ccc2c(c1)C(O)(C(F)(F)F)c1ccccc1-2)N1CC(OCCO)C1 (centres unmarked) [compound 108] please
*A* 6.00 to 7.00

*Q* Entry OC1(C(F)(F)F)c2ccccc2-c2c(-c3cnn(Cc4ccccc4)c3)cccc21 (centres unmarked) [compound 466] please
*A* > 7.00

*Q* Entry CNC(=O)CCOc1ccc2c(c1)C(O)(C(F)(F)F)c1ccccc1-2 (centres unmarked) [compound 302] please
*A* < 6.00

*Q* Entry Nc1ccc2c(c1)-c1ccccc1C2(O)C(F)(F)F (centres unmarked) [compound 26] please
*A* < 6.00

*Q* Entry CNC(=O)Cn1cc(-c2cc(F)cc3c2-c2ccccc2[C@]3(O)C(F)(F)F)cn1 (stereo in doubt) [compound 534] please
*A* > 7.00

*Q* Entry CC(C)(C)C(=O)N1CCN(c2ccc3c(c2)C(O)(C(F)(F)F)c2ccccc2-3)CC1 (centres unmarked) [compound 209] please
*A* 6.00 to 7.00

*Q* Entry OCCn1cc(-c2cc(-c3cnn(CCO)c3)c3c(c2)C(O)(C(F)(F)F)c2ccccc2-3)cn1 (centres unmarked) [compound 580] please
*A* > 7.00

*Q* Entry OC1(C(F)(F)F)c2ccccc2-c2ccc(-c3cccc(F)c3)cc21 (centres unmarked) [compound 129] please
*A* 6.00 to 7.00

*Q* Entry CC(=O)N(C)CCn1cc(-c2cccc3c2-c2ccccc2C3(O)C(F)(F)F)cn1 (centres unmarked) [compound 535] please
*A* 6.00 to 7.00

*Q* Entry Cn1cc(-c2cc(C(=O)N3CCC[C@H]3CO)cc3c2-c2ccccc2C3(O)C(F)(F)F)cn1 (some centres unmarked) [compound 393] please
*A* 6.00 to 7.00

*Q* Entry CN(C)C(=O)c1cccc(-c2ccc3c(c2)C(O)(C(F)(F)F)c2ccccc2-3)c1 (centres unmarked) [compound 158] please
*A* 6.00 to 7.00

###

Each record here notes measured IC50.
- Test Target: human PDHK2 (hPDHK2) (Homo sapiens (Human), UniProt Q15119)
- Protocol Notes: Inhibitory action of PDHK activity in vitro (kinase reaction, residual PDH activity measured)
- Format: biochemical
- Test Parameters: PDHK inhibitory activity, class symbol of IC50

*Q* Given OCCCCCCOc1ccc2c(c1)C(O)(C(F)(F)F)c1ccccc1-2 (stereo not shown) , state its recorded IC50.
*A* 0.1 to 1 µM

*Q* Entry Cc1cccc(-c2ccc3c(c2)C(O)(C(F)(F)F)c2ccccc2-3)c1 (stereo not shown) please
*A* > 1 µM

*Q* Entry O=C(COc1ccc2c(c1)C(O)(C(F)(F)F)c1ccccc1-2)N1CCC[C@@H]1CO (stereo partly shown) please
*A* 0.1 to 1 µM

*Q* Entry O=C(O)c1ccc(-c2cc(Cl)c3c(c2)C(O)(C(F)(F)F)c2ccccc2-3)cc1 (stereo not shown) please
*A* < 0.1 µM

*Q* Entry Cn1cc(-c2cc(OCCCC(=O)O)cc3c2-c2ccccc2C3(O)C(F)(F)F)cn1 (stereo not shown) [compound 449] please
*A* < 0.1 µM

*Q* Entry Cc1n[nH]c(-c2cccc3c2-c2ccccc2C3(O)C(F)(F)F)n1 (stereo not shown) please
*A* > 1 µM

*Q* Entry CC(CCOc1cc(-c2cnn(C)c2)c2c(c1)C(O)(C(F)(F)F)c1ccccc1-2)C(=O)O (single isomer, unassigned) please
*A* < 0.1 µM

*Q* Entry NC(=O)COC1CN(C(=O)c2ccc3c(c2)C(O)(C(F)(F)F)c2ccccc2-3)C1 (stereo not shown) please
*A* 0.1 to 1 µM

*Q* Entry CN(C)C(=O)c1ccc2c(c1)-c1ccccc1C2(O)C(F)(F)F (stereo not shown) please
*A* > 1 µM

*Q* Entry O=C1CC[C@H](COc2ccc3c(c2)C(O)(C(F)(F)F)c2ccccc2-3)N1 (stereo partly shown) please
*A* 0.1 to 1 µM

*Q* Entry COC(=O)c1cc(C(=O)OC)c2c(c1)C(O)(C(F)(F)F)c1ccccc1-2 (stereo not shown) please
*A* 0.1 to 1 µM

*Q* Entry Cc1cc(C(=O)N2CC(OCCO)C2)cc2c1-c1ccccc1C2(O)C(F)(F)F (single isomer, unassigned) please
*A* < 0.1 µM

*Q* Entry Cc1cc(C(=O)N2CC(CO)C2)cc2c1-c1ccccc1C2(O)C(F)(F)F (stereo not shown) please
*A* 0.1 to 1 µM

*Q* Entry Cc1cc(C(=O)N2CC(O)C2)cc2c1-c1ccccc1C2(O)C(F)(F)F (stereo not shown) please
*A* 0.1 to 1 µM

*Q* Entry O=C(c1cc(-c2cccnc2)c2c(c1)C(O)(C(F)(F)F)c1ccccc1-2)N1CCC1 (stereo not shown) please
*A* < 0.1 µM

*Q* Entry CCOc1cc(-c2cnn(CCC(=O)O)c2)c2c(c1)C(O)(C(F)(F)F)c1ccccc1-2 (single isomer, unassigned) please
*A* < 0.1 µM

###

- Test Target: human PDHK2 (hPDHK2) (Homo sapiens (Human), UniProt Q15119)
- Protocol Notes: Inhibitory action of PDHK activity in vitro (kinase reaction, residual PDH activity measured)
- Format: biochemical
- Test Parameters: read-out: PDHK inhibitory activity IC50
Each record here notes measured IC50.
Give just the number in nM; leave the unit off.

In the examples that follow, each entry is paired with its recorded IC50.
*Q* Given CC(=O)N1CCN(c2ccc3c(c2)C(O)(C(F)(F)F)c2ccccc2-3)CC1 (centres unmarked) [compound 165] , state its recorded IC50.
*A* 957

*Q* Entry CN(CCOc1cc(-c2cnn(C)c2)c2c(c1)C(O)(C(F)(F)F)c1ccccc1-2)C(=O)C(C)(C)C (centres unmarked) [compound 471] please
*A* 26

*Q* Entry CN(C)C(=O)CCCOc1cc(-c2cnn(C)c2)c2c(c1)C(O)(C(F)(F)F)c1ccccc1-2 (centres unmarked) [compound 427] please
*A* 20

*Q* Entry CCOC(=O)c1ccc(-c2ccc3c(c2)C(O)(C(F)(F)F)c2ccccc2-3)cc1 (centres unmarked) [compound 175] please
*A* 517

*Q* Entry CC(=O)NCc1ccc2c(c1)C(O)(C(F)(F)F)c1ccccc1-2 (centres unmarked) [compound 415] please
*A* 9190

*Q* Entry O=C(O)c1ccc(-c2cc(-c3cccnc3)c3c(c2)C(O)(C(F)(F)F)c2ccccc2-3)cc1 (centres unmarked) [compound 342] please
*A* 47

Next compound, please.
*Q* Given OC1(C(F)(F)F)c2ccccc2-c2ccc(/C=C/c3ccccc3)cc21 (centres unmarked) [compound 252] , state its recorded IC50.
*A* 1270

###

Each record here notes measured pIC50.
- Test Target: human PDHK2 (hPDHK2) (Homo sapiens (Human))
- Protocol Notes: Inhibitory action of PDHK activity in vitro (kinase reaction, residual PDH activity measured)
- Format: biochemical
- Test Parameters: read-out: PDHK inhibitory activity IC50
- Protocol: In the case of human PDHK2 (hPDHK2, Genbank Accession No. NM_002611), modified hPDHK2 cDNA wherein FLAG-Tag sequence is added to the N terminal by a polymerase linkage reaction was prepared based on hPDHK2 cDNA clone (pReceiver-M01/PDK2-GeneCopoeia), and cloned into a vector (pET17b-Novagen). The recombinant construct was transformed into Escherichia coli (DH5α-TOYOBO). The recombinant clones were identified, plasmid DNA was isolated and subjected to the DNA sequence analysis. […]
Please note pIC50 is a logarithmic value: minus log10 of concentration in mol/L. Answer with that number alone.

In the examples that follow, each entry is paired with its recorded pIC50.
*Q* Given O=C(COc1ccc2c(c1)C(O)(C(F)(F)F)c1ccccc1-2)N1CCC[C@@H]1CO (some centres unmarked) , state its recorded pIC50.
*A* 6.06

*Q* Entry OCCCCCOc1cc(Cl)c2c(c1)C(O)(C(F)(F)F)c1ccccc1-2 (centres unmarked) please
*A* 7.20

*Q* Entry CN(C)c1cccc2c1-c1ccccc1C2(O)C(F)(F)F (centres unmarked) please
*A* 4.38

*Q* Entry OC1(C(F)(F)F)c2ccccc2-c2c(-c3cnn(Cc4ccccc4)c3)cccc21 (centres unmarked) please
*A* 7.26

Further cases:
*Q* Given COC(=O)c1cc(Cl)c2c(c1)C(O)(C(F)(F)F)c1ccccc1-2 (centres unmarked) [compound 61] , state its recorded pIC50.
*A* 6.53
